Experiment: Kinetic solubility of the compound in water at pH 2 by nephlometry
Assay type: physicochemical
Details: read-out: Kinetic_solubility
EXPERIMENTAL_ENDPOINT: solubility kinetic (µM)

{"SMILES_ENTRY": "COC(=O)c1cccc(NC(=O)/C=C/Oc2ccc(C34CC5CC(CC(C5)C3)C4)cc2)c1", "EXPERIMENTAL_ENDPOINT": "solubility kinetic", "UNIT_LABEL": "µM", "ENDPOINT_VALUE": 4.25}

1. COC(=O)c1ccc(O)c(NC(=O)COc2ccc(C34CC5CC(CC(C5)C3)C4)cc2)c1
2. O=C(/C=C/Oc1ccc(C23CC4CC(CC(C4)C2)C3)cc1)Nc1cccc(C(=O)OCCN2CCOCC2)c1
Lab note: record which item had the higher solubility kinetic, 1 or 2 . In your reply, give the label of the chosen option.
1
(1: 68.2 µM, 2: 45.1 µM)

====

Assay: Kinetic solubility of the compound in water at pH 9 by nephlometry
Format: physicochemical
Conditions: read-out: Kinetic_solubility
EXPERIMENTAL_ENDPOINT: solubility kinetic (µM)

{"SMILES_ENTRY": "O=C(/C=C/Oc1ccc(C23CC4CC(CC(C4)C2)C3)cc1)Nc1cccc(C(=O)OCCN2CCOCC2)c1", "UNIT_LABEL": "µM", "solubility kinetic": 61.3}

P. COC(=O)c1ccc(O)c(NC(=O)COc2ccc(C34CC5CC(CC(C5)C3)C4)cc2)c1
Q. COC(=O)c1cccc(NC(=O)/C=C/Oc2ccc(C34CC5CC(CC(C5)C3)C4)cc2)c1
Lab note: record which item had the higher solubility kinetic, P or Q . Answer by quoting the chosen item's label.
P
(P: 44.9 µM, Q: 12.2 µM)

====

Test: Kinetic solubility of the compound in water at pH 7.4 by nephlometry
Type: physicochemical
Conditions: read-out: Kinetic_solubility
EXPERIMENTAL_ENDPOINT: solubility kinetic (µM)

{"SMILES_ENTRY": "COC(=O)c1cccc(NC(=O)/C=C/Oc2ccc(C34CC5CC(CC(C5)C3)C4)cc2)c1", "solubility kinetic (µM)": 6.56}

P. COC(=O)c1ccc(O)c(NC(=O)COc2ccc(C34CC5CC(CC(C5)C3)C4)cc2)c1
Q. O=C(/C=C/Oc1ccc(C23CC4CC(CC(C4)C2)C3)cc1)Nc1cccc(C(=O)OCCN2CCOCC2)c1
Given the two records P and Q , choose the one whose solubility kinetic value is lower. To answer, give the label that identifies your chosen option.
P
(P: 6.85 µM, Q: 113 µM)

====

Test system: HCT-116
Test: Cytotoxicity against human HCT116 cells assessed as cell viability after 48 hrs by SRB assay
Type: cell-based
Details: hct-116, 48 h
EXPERIMENTAL_ENDPOINT: Activity

{"SMILES_ENTRY": "COC(=O)c1ccc(O)c(NC(=O)COc2ccc(C34CC5CC(CC(C5)C3)C4)cc2)c1", "Activity": "> 20 µM"}
{"SMILES_ENTRY": "O=C(/C=C/Oc1ccc(C23CC4CC(CC(C4)C2)C3)cc1)Nc1cccc(C(=O)NCCc2ccncc2)c1", "Activity": "> 20 µM"}
{"SMILES_ENTRY": "O=C(/C=C/Oc1ccc(C23CC4CC(CC(C4)C2)C3)cc1)Nc1cccc(C(=O)OCCN2CCCC2)c1", "Activity": "> 20 µM"}

# get_value(readout= Activity, system= HCT-116) for COC(=O)c1cccc(NC(=O)COc2ccc(C34CC5CC(CC(C5)C3)C4)cc2)c1
> 20 µM

Then this compound: COCCOC(=O)c1cccc(NC(=O)/C=C/Oc2ccc(C34CC5CC(CC(C5)C3)C4)cc2)c1
> 20 µM

====

Target: Hypoxia-inducible factor 1-alpha (Homo sapiens)
Test: Inhibition of HIF1alpha in human HCT116 cells under hypoxic condition after 16 hrs by dual luciferase reporter gene assay
Conditions: hct-116
pIC50: −log10 of the molar value.
EXPERIMENTAL_ENDPOINT: pIC50

{"SMILES_ENTRY": "O=C(/C=C/Oc1ccc(C23CC4CC(CC(C4)C2)C3)cc1)Nc1cccc(C(=O)OCCN2CCOCC2)c1", "TESTED_ON": "Hypoxia-inducible factor 1-alpha (Homo sapiens)", "ENDPOINT_VALUE": 6.92}
{"SMILES_ENTRY": "CN(C)CCOC(=O)c1cccc(NC(=O)/C=C/Oc2ccc(C34CC5CC(CC(C5)C3)C4)cc2)c1", "TESTED_ON": "Hypoxia-inducible factor 1-alpha (Homo sapiens)", "ENDPOINT_VALUE": 5.58}
{"SMILES_ENTRY": "COC(=O)c1cccc(NC(=O)CCOc2ccc(C34CC5CC(CC(C5)C3)C4)cc2)c1", "TESTED_ON": "Hypoxia-inducible factor 1-alpha (Homo sapiens)", "ENDPOINT_VALUE": 5.60}
{"SMILES_ENTRY": "COC(=O)c1cccc(NC(=O)COc2ccc(C34CC5CC(CC(C5)C3)C4)cc2)c1", "TESTED_ON": "Hypoxia-inducible factor 1-alpha (Homo sapiens)", "ENDPOINT_VALUE": 5.30}
{"SMILES_ENTRY": "O=C(/C=C/Oc1ccc(C23CC4CC(CC(C4)C2)C3)cc1)Nc1cccc(C(=O)OCCN2CCCC2)c1", "TESTED_ON": "Hypoxia-inducible factor 1-alpha (Homo sapiens)", "ENDPOINT_VALUE": 5.87}

I. O=C(/C=C/Oc1ccc(C23CC4CC(CC(C4)C2)C3)cc1)Nc1cccc(C(=O)NCCCn2ccnc2)c1
II. COC(=O)c1cccc(NC(=O)/C=C/Oc2ccc(C(C)(C)C)cc2)c1
III. CCOC(=O)c1cccc(NC(=O)/C=C/Oc2ccc(C34CC5CC(CC(C5)C3)C4)cc2)c1
Kindly order the items shown according to pIC50, from the highest value down. API: response body holds the labels in the requested order.
III, I, II
(III: 6.09, I: 5.73, II: 5.22)

====

Target: Hypoxia-inducible factor 1-alpha (Homo sapiens, UniProt Q16665)
Sequence (Q16665 whole entry): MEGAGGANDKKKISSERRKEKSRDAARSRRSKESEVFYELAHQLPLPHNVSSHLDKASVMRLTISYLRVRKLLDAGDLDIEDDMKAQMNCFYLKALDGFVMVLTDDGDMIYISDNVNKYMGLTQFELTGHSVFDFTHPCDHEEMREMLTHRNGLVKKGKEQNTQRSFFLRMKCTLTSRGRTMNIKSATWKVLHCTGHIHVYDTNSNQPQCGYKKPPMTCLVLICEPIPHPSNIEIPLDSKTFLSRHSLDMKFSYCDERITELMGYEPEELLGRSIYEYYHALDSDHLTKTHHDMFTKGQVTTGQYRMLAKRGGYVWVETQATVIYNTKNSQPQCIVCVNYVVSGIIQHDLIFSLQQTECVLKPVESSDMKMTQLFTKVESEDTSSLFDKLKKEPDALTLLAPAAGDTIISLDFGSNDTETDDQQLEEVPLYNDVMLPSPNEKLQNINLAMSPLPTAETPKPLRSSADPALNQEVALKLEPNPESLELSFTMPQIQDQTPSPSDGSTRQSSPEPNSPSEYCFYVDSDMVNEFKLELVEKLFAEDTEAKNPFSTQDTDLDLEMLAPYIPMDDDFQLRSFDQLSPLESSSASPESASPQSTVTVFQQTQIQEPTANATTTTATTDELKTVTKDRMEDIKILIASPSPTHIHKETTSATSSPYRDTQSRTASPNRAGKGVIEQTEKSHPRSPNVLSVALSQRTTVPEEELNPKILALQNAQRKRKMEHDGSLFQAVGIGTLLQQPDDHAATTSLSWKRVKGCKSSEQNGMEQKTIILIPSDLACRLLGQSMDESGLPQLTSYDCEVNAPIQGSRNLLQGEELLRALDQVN
Assay: Inhibition of HIF1alpha in human HCT116 cells under hypoxic condition after 16 hrs by dual luciferase reporter gene assay
Settings: hct-116
pIC50: −log10 of the molar value.
EXPERIMENTAL_ENDPOINT: pIC50

{"SMILES_ENTRY": "O=C(/C=C/Oc1ccc(C23CC4CC(CC(C4)C2)C3)cc1)Nc1cccc(C(=O)NCCc2ccncc2)c1", "pIC50": 5.87}

a. NS(=O)(=O)c1cccc(NC(=O)/C=C/Oc2ccc(C34CC5CC(CC(C5)C3)C4)cc2)c1
b. O=C(/C=C/Oc1ccc(C23CC4CC(CC(C4)C2)C3)cc1)Nc1cccc(C(=O)NCCN2CCOCC2)c1
Given the two records a and b , choose the one whose pIC50 value is lower. Selection: enter the item's label.
a
(a: 5.62, b: 5.97)

P. COCCOC(=O)c1cccc(NC(=O)/C=C/Oc2ccc(C34CC5CC(CC(C5)C3)C4)cc2)c1
Q. COC(=O)c1cccc(NC(=O)/C=C/Oc2ccc(C(C)(C)CC(C)(C)C)cc2)c1
Select the item with the higher value of pIC50 from the options P and Q listed. Answer format: the label of the selected item.
Q
(Q: 5.98, P: 5.74)

1. COC(=O)c1ccc(NC(=O)/C=C/Oc2ccc(C34CC5CC(CC(C5)C3)C4)cc2)cc1
2. COC(=O)c1cccc(NC(=O)/C=C/Oc2ccc(C34CC5CC(CC(C5)C3)C4)cc2C)c1
Higher pIC50 between 1 and 2 ? Response format: the label of the selected entry.
1

1. COC(=O)c1ccc(O)c(NC(=O)COc2ccc(C34CC5CC(CC(C5)C3)C4)cc2)c1
2. COC(=O)c1cccc(NC(=O)CCCOc2ccc(C34CC5CC(CC(C5)C3)C4)cc2)c1
Which one would you say has the larger pIC50 value: 1 , or 2 ? Choose, then provide that item's label.
1
(1: 5.61, 2: 4.80)

====

Target: Hypoxia-inducible factor 1-alpha (Homo sapiens, UniProt Q16665)
Experiment: Inhibition of HIF1alpha in human HCT116 cells under hypoxic condition after 16 hrs by dual luciferase reporter gene assay
Conditions: hct-116
EXPERIMENTAL_ENDPOINT: IC50

Example entries begin here.
{"SMILES_ENTRY": "NC(=O)c1cccc(NC(=O)/C=C/Oc2ccc(C34CC5CC(CC(C5)C3)C4)cc2)c1", "EXPERIMENTAL_ENDPOINT": "IC50", "ENDPOINT_VALUE": "> 20 µM"}
{"SMILES_ENTRY": "O=C(/C=C/Oc1ccc(C23CC4CC(CC(C4)C2)C3)cc1)Nc1cccc(C(=O)NCc2ccco2)c1", "EXPERIMENTAL_ENDPOINT": "IC50", "ENDPOINT_VALUE": "> 20 µM"}
{"SMILES_ENTRY": "CS(=O)(=O)c1cccc(NC(=O)/C=C/Oc2ccc(C34CC5CC(CC(C5)C3)C4)cc2)c1", "EXPERIMENTAL_ENDPOINT": "IC50", "ENDPOINT_VALUE": "1.18 µM"}
{"SMILES_ENTRY": "O=C(/C=C/Oc1ccc(C23CC4CC(CC(C4)C2)C3)cc1)Nc1cccc(C(=O)O)c1", "EXPERIMENTAL_ENDPOINT": "IC50", "ENDPOINT_VALUE": "> 20 µM"}
{"SMILES_ENTRY": "CC(C)NC(=O)c1cccc(NC(=O)/C=C/Oc2ccc(C34CC5CC(CC(C5)C3)C4)cc2)c1", "EXPERIMENTAL_ENDPOINT": "IC50", "ENDPOINT_VALUE": "> 20 µM"}

Read the next record carefully.
Which measured IC50 belongs to COC(=O)c1cc(NC(=O)/C=C/Oc2ccc(C34CC5CC(CC(C5)C3)C4)cc2)ccc1O , tested on Hypoxia-inducible factor 1-alpha (Homo sapiens, UniProt Q16665)?
> 20 µM

Cited source: ChEMBL document CHEMBL2176992
